B1: CPEB3 Ribozyme (parent)
chain: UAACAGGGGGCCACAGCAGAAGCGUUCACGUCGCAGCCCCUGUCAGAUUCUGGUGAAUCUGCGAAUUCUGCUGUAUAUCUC

Variants of: B1
experimental_details: self-cleavage, relative activity (ratio to wild type); higher = more cleavage; in vitro, sequencing
endpoint: self-cleavage
Numbers only.

Examples with answers:
G10A A21C | 0.15
C32G A45C | 0.12
C39G A45G | 0.29
G30A G52A | 0.21
G7C | 0.29
C44U A64U | 0.18

Could I get self-cleavage for every one of these entries?
1. C14U A75U
2. G24A U41A
3. G8C G33A
4. U26A U41C

Outgoing:
1.23
0.21
0.06
0.67

Could I get self-cleavage for every one of these entries?
1. U41A C81U
2. A18C U43A
3. A3G A15G
4. A21G G53A

Outgoing:
[0.25, 0.64, 0.84, 0.58]

Could I get self-cleavage for every one of these entries?
1. U25C U66A
2. U51C U74C

Outgoing:
1: 0.35; 2: 1.21

Could I get self-cleavage for every one of these entries?
1. C39U A77U
2. A35C U66C

Outgoing:
0.81
0.5

Could I get self-cleavage for every one of these entries?
1. G36A U41A
2. U54G A64U
3. G36C A47G
4. C14A U43C

Outgoing:
1. 0.18
2. 0.28
3. 0.15
4. 0.83
